target: ComR S. mutans DNA-binding domain (DBD) construct (Streptococcus mutans); assay: ITC; 300 μM Prx (or PrxD32A) injected into 20 μM ComR S. mutans or DBD, 25 °C, gel filtration buffer (20 mM Tris-HCl pH 7.5, 100 mM NaCl, 1 mM β-ME); one site model
parameter.measured: Kd

Request: Record request: Kd value, item paratox (Prx) from S. pyogenes MGAS315 (natural protein) MLTYDEFKQAIDRGYITADTVMIVRKNGQIFDYVLPNEKIKNGEIVTDEKVEEVLVELSR
Response: 50 nM
